All figures here come from patent US11873291B2.

- STUDY_SYSTEM: recombinant human cGAS (aa147-522) (Homo sapiens, UniProt Q8N884)
- Construct: recombinant human cGAS (aa147-522); His6-SUMO (cleaved yes); made in house; host or cells: E. coli BL21/pLys
- Sequence (Q8N884 147-522): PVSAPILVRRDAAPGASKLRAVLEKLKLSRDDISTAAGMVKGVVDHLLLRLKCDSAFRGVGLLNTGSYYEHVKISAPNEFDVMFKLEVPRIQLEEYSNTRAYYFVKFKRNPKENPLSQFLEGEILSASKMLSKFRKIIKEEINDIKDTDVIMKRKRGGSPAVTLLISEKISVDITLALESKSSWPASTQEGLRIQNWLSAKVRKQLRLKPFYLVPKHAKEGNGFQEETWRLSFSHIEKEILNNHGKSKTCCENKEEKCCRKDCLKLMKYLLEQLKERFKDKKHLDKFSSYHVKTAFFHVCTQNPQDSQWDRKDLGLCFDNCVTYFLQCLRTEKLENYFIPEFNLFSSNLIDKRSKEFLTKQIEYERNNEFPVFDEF
- MEASUREMENT_DESCRIPTION: In vitro inhibition assay of cGAS activity (ATP consumption, KinaseGlo Max)
- Type: biochemical
- COND: Table 3, read-out: cGAS Inhibition Results IC50
- Method: Expression and Purification of Recombinant cGAS Protein: cDNA encoding full-length or amino acids […] of human cGAS was inserted into a modified pET28a vector containing an in-frame His6-SUMO tag. The E. coli strain BL21/pLys harboring the plasmid was induced with 0.5 mM IPTG at 18° C. overnight. His6-SUMO tag was removed by a SUMO protease digestion following purification of the His6-SUMO-cGAS as described previously (Sun et al, 2013, Science 339, 786). […]
Reported IC50 values follow for various molecules

Here are 3 molecules together with their reported answers.
INSERT INTO results (cpd_smiles, study_system, measured_value) VALUES
  ('O=C(O)CCOC[C@@H]1C[C@@H](C2CCCCC2)CN1c1cc(-n2ccnc2)c2ccc(Cl)c(Cl)c2n1', 'recombinant human cGAS (aa147-522) (Homo sapiens, UniProt Q8N884)', '< 2 µM'),
  ('COC(=O)[C@H]1[C@@H](O)CCN1c1cc(-n2ccnc2)c2ccc(Cl)c(Cl)c2n1', 'recombinant human cGAS (aa147-522) (Homo sapiens, UniProt Q8N884)', '2 to 30 µM'),
  ('N[C@H]1CCN(c2cc(-n3ccnc3)c3ccc(Cl)c(Cl)c3n2)C1', 'recombinant human cGAS (aa147-522) (Homo sapiens, UniProt Q8N884)', '2 to 30 µM');

The molecule listed as COC(=O)[C@@H]1[C@@H](C)CCN1c1cc(-n2ccnc2)c2ccc(Cl)c(Cl)c2n1 shows IC50 equal to 2 to 30 µM

The molecule listed as COC[C@@H]1CC[C@@H](C(=O)O)N1c1cc(-n2ccnc2)c2ccc(Cl)c(Cl)c2n1 shows IC50 equal to 2 to 30 µM

The molecule listed as COC(=O)[C@@H]1[C@@H](O)CCN1c1cc(-c2cn[nH]c2)c2ccc(Cl)c(Cl)c2n1 shows IC50 equal to 2 to 30 µM

The molecule listed as COC(=O)CCOCC[C@@H]1CCCN1c1cc(-n2ccnc2)c2ccc(Cl)c(Cl)c2n1 shows IC50 equal to 2 to 30 µM

The molecule listed as N#CNC(=O)COC[C@@H]1CCCN1c1cc(-n2ccnc2)c2ccc(Cl)c(Cl)c2n1 shows IC50 equal to < 2 µM

###

Reported IC50 values follow for various compounds
- STUDY_SYSTEM: recombinant human cGAS (aa147-522) (Homo sapiens, UniProt Q8N884)
- Construct: recombinant human cGAS (aa147-522); His6-SUMO (cleaved yes); made in house; host or cells: E. coli BL21/pLys
- MEASUREMENT_DESCRIPTION: In vitro inhibition assay of cGAS activity (ATP consumption, KinaseGlo Max)
- Assay type: biochemical
- COND: Table 2, read-out: cGAS Inhibition Results IC50

INSERT INTO results (compound, study_system, endpoint_label, measured_value) VALUES
  ('O=C(O)C[C@@H](Nc1cc(-n2ccnc2)c2ccc(Cl)c(Cl)c2n1)c1ccccc1 [I-189]', 'recombinant human cGAS (aa147-522) (Homo sapiens, UniProt Q8N884)', 'IC50', '2 to 30 µM'),
  ('O=C(O)CNc1cc(-n2ccnc2)c2ccc(Cl)cc2n1 [I-166]', 'recombinant human cGAS (aa147-522) (Homo sapiens, UniProt Q8N884)', 'IC50', '2 to 30 µM'),
  ('O=C(O)C1CCC=C(c2cc(-c3cn[nH]c3)c3ccc(Cl)c(Cl)c3n2)C1 (centres unmarked) [I-273]', 'recombinant human cGAS (aa147-522) (Homo sapiens, UniProt Q8N884)', 'IC50', '2 to 30 µM');

The compound listed as CN(CCNS(C)(=O)=O)c1cc(-n2ccnc2)c2ccc(Cl)c(Cl)c2n1 [I-225] shows IC50 equal to < 2 µM

The compound listed as NS(=O)(=O)CC1CCCN1c1cc(-n2ccnc2)c2ccc(Cl)c(Cl)c2n1 (centres unmarked) [I-148] shows IC50 equal to < 2 µM

###

- STUDY_SYSTEM: recombinant human cGAS (aa147-522) (Homo sapiens, UniProt Q8N884)
- Construct: recombinant human cGAS (aa147-522); His6-SUMO (cleaved yes); made in house; host or cells: E. coli BL21/pLys
- MEASUREMENT_DESCRIPTION: In vitro inhibition assay of cGAS activity (ATP consumption, KinaseGlo Max)
- Type: biochemical
- COND: Table 2, read-out: cGAS Inhibition Results IC50
pIC50: −log10 of the molar value.
Reported pIC50 values follow for various compounds

Here are 10 compounds together with their reported answers.
INSERT INTO results (compound, endpoint_label, measured_value) VALUES
  ('Cc1ccc(-c2cc(-n3ccnc3)c3ccc(Br)cc3n2)cc1 [I-385]', 'pIC50', '4.52 to 5.70'),
  ('CN(CCC(=O)N1CCCC(CO)C1)c1cc(-c2cn[nH]c2)c2ccc(Cl)c(Cl)c2n1 (stereo not shown) [I-199]', 'pIC50', '4.52 to 5.70'),
  ('COC(=O)c1cncc(-c2cc(-n3ccnc3)c3ccc(Cl)cc3n2)c1 [I-34]', 'pIC50', '< 4.52'),
  ('O=C(O)c1cc(-c2cc(Cl)c3ccc(Cl)c(Cl)c3n2)ccc1O [I-75]', 'pIC50', '< 4.52'),
  ('COc1cc(C(=O)O)cc(-c2cc(-n3ccnc3)c3ccc(Cl)cc3n2)c1 [I-24]', 'pIC50', '> 5.70'),
  ('OCC1CN(c2cc(-n3ccnc3)c3ccc(Cl)c(Cl)c3n2)CCO1 (stereo not shown) [I-98]', 'pIC50', '4.52 to 5.70'),
  ('O=C(O)c1cc2c(c(-c3cc(-n4ccnc4)c4ccc(Cl)cc4n3)c1)OC(F)(F)O2 [I-38]', 'pIC50', '< 4.52'),
  ('O=C(C[C@@H]1CCCN1c1cc(-n2ccnc2)c2ccc(Cl)c(Cl)c2n1)N[C@@H](C(=O)O)c1ccccc1 [I-388]', 'pIC50', '4.52 to 5.70'),
  ('NC(=O)C1CN(c2cc(-c3cn[nH]c3)c3ccc(Cl)c(Cl)c3n2)CCO1 (stereo not shown) [I-371]', 'pIC50', '> 5.70'),
  ('CC(CNc1cc(-n2ccnc2)c2ccc(Cl)c(Cl)c2n1)S(N)(=O)=O (stereo not shown) [I-210]', 'pIC50', '4.52 to 5.70');

Sample O=C(O)CC1COCCN1c1cc(-n2ccnc2)c2ccc(Cl)c(Cl)c2n1 (stereo not shown) [I-94] , system: recombinant human cGAS (aa147-522) (Homo sapiens, UniProt Q8N884). Its pIC50 is > 5.70

Sample O=C(O)[C@@H]1CN(c2cc(-c3cn[nH]c3)c3ccc(Cl)c(Cl)c3n2)CCO1 [I-327] , system: recombinant human cGAS (aa147-522) (Homo sapiens, UniProt Q8N884). Its pIC50 is > 5.70

Sample CN(CCS(=O)(=O)O)c1cc(-n2ccnc2)c2ccc(Cl)c(Cl)c2n1 [I-159] , system: recombinant human cGAS (aa147-522) (Homo sapiens, UniProt Q8N884). Its pIC50 is > 5.70

Sample C[C@@H](CC(=O)O)Nc1cc(-n2ccnc2)c2ccc(Cl)c(Cl)c2n1 [I-186] , system: recombinant human cGAS (aa147-522) (Homo sapiens, UniProt Q8N884). Its pIC50 is > 5.70

Sample CC(C)N(CCS(=O)(=O)O)c1cc(-n2ccnc2)c2ccc(Cl)c(Cl)c2n1 [I-165] , system: recombinant human cGAS (aa147-522) (Homo sapiens, UniProt Q8N884). Its pIC50 is > 5.70

Sample O=C(O)[C@@H]1C[C@@H](O)CN1c1cc(-c2cn[nH]c2)c2ccc(Cl)c(Cl)c2n1 [I-433] , system: recombinant human cGAS (aa147-522) (Homo sapiens, UniProt Q8N884). Its pIC50 is > 5.70

Sample OCCC1CCCN(c2cc(-c3cn[nH]c3)c3ccc(Cl)c(Cl)c3n2)C1 (stereo not shown) [I-375] , system: recombinant human cGAS (aa147-522) (Homo sapiens, UniProt Q8N884). Its pIC50 is 4.52 to 5.70

Sample O=C(CO)N1CCN(c2cc(-n3ccnc3)c3ccc(Cl)cc3n2)CC1 [I-77] , system: recombinant human cGAS (aa147-522) (Homo sapiens, UniProt Q8N884). Its pIC50 is < 4.52

Sample O=C(O)CNc1cc(-c2cn[nH]c2)c2ccc(Cl)c(Cl)c2n1 [I-177] , system: recombinant human cGAS (aa147-522) (Homo sapiens, UniProt Q8N884). Its pIC50 is 4.52 to 5.70

Sample O=C(O)[C@@H]1C[C@@H](F)CN1c1cc(-n2ccnc2)c2ccc(Cl)c(Cl)c2n1 [I-322] , system: recombinant human cGAS (aa147-522) (Homo sapiens, UniProt Q8N884). Its pIC50 is > 5.70

Sample OB(O)C1CCCN(c2cc(-n3ccnc3)c3ccc(Cl)c(Cl)c3n2)C1 (stereo not shown) [I-120] , system: recombinant human cGAS (aa147-522) (Homo sapiens, UniProt Q8N884). Its pIC50 is > 5.70

Sample OC[C@@H]1CN(c2cc(-c3cn[nH]c3)c3ccc(Cl)c(Cl)c3n2)CCO1 [I-372] , system: recombinant human cGAS (aa147-522) (Homo sapiens, UniProt Q8N884). Its pIC50 is > 5.70

Sample OC[C@@H]1CCCN1c1cc(-n2ccnc2)c2ccc(Cl)c(Cl)c2n1 [I-139] , system: recombinant human cGAS (aa147-522) (Homo sapiens, UniProt Q8N884). Its pIC50 is > 5.70

Sample COC(=O)c1cccc(-c2cc(-n3ccnc3)c3ccc(Cl)cc3n2)c1 [I-5] , system: recombinant human cGAS (aa147-522) (Homo sapiens, UniProt Q8N884). Its pIC50 is 4.52 to 5.70

Sample CCOC(=O)c1ccccc1-c1cc(-n2ccnc2)c2ccc(Cl)cc2n1 [I-12] , system: recombinant human cGAS (aa147-522) (Homo sapiens, UniProt Q8N884). Its pIC50 is < 4.52

Sample NS(=O)(=O)CCNc1cc(-c2cn[nH]c2)nc2ccc(C(F)(F)F)cc12 [I-301] , system: recombinant human cGAS (aa147-522) (Homo sapiens, UniProt Q8N884). Its pIC50 is < 4.52
